Measured values drawn from PubChem BioAssay (NCI) for this set.

test system: SK-MEL-28 melanoma; assay: NCI-60 one-dose screen, 48 h; details: 10 µM unless noted
The panel holds about 83,000 compounds, 20% with a hit somewhere; the sample as a whole holds those more often. Activity calls are given as the source filed them. The calls were made as follows: active = growth percent below 10; inactive = the rest.
Could you please pick one outcome from this set? active, inactive

{"compound": "C[C@@H]1CC[C@@H]2[C@@H]1[C@H](OC(=O)/C=C/c1ccccc1)[C@]1(CCCOCCOCCOCCOC(=O)CCCC[C@@H]3SC[C@@H]4NC(=O)N[C@@H]43)C[C@@H](OC(=O)CO)[C@@]2(C)O1", "cat": "inactive"}

Ask: Please share the test call associated with `COc1cc(C(=O)/C=C/c2c(C(F)(F)F)nc3ccccn23)cc(OC)c1OC` .
Reply: active
